Record form. Attribute: pIC50. Fill in for each entry.
Target: CDK4/cyclin D1 (Homo sapiens)
Sequence (P11802 whole entry, species assumed): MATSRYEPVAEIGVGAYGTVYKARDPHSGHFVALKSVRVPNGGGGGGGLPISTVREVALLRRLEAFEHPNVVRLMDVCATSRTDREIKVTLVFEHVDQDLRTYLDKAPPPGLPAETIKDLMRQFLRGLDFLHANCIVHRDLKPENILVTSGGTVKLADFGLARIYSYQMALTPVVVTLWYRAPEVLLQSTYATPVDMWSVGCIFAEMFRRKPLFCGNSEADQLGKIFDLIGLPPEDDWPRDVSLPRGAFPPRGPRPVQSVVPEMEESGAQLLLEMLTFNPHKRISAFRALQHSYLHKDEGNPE
Sequence (P24385 whole entry partner, species assumed): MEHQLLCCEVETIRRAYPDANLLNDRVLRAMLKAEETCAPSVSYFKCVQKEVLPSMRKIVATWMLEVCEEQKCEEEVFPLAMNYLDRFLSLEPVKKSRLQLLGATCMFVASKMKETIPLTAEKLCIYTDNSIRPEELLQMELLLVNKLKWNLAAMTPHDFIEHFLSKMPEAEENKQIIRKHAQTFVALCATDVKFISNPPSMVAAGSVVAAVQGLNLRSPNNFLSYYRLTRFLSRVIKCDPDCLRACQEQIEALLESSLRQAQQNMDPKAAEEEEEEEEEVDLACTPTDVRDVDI
Experiment: Inhibitory activity against CDK4/cyclin D1 enzyme (GST-RB phosphorylation, P32-γ-ATP, scintillation counting)
Details: CDK4/cyclin D1, 100 μM ATP, GST-RB substrate, 30° C. 30 minutes
Bear in mind: pIC50 is minus log10 of a mol/L concentration; give just that figure.

Just so you know, measured pIC50 for `O=c1c(O)c(-c2ccc(O)c(O)c2)oc2ccc(NS(=O)(=O)c3ccc(-c4ccccn4)s3)cc12` came out at 5.38

Input `Nc1ccc(NC(=O)Nc2ccc3oc(-c4ccc(O)c(O)c4)c(O)c(=O)c3c2)cc1` . Output pIC50: 5.64

Lab book: pIC50 of `O=C(Nc1ccccc1)Nc1ccc2oc(-c3ccc(O)c(O)c3)c(O)c(=O)c2c1` noted as 5.38

Memo: `O=c1c(O)c(-c2ccc(O)c(O)c2)oc2ccc(NS(=O)(=O)c3ccc4ccccc4c3)cc12` , reported pIC50: 5.38

The recorded pIC50 for entry `O=c1c(O)c(-c2ccc(O)c(O)c2)oc2ccc(NS(=O)(=O)c3ccc(F)cc3)cc12` equals 5.68
